# Target or system: AMP-activated protein kinase, AMPK (Homo sapiens) (UniProt P54646+O43741+P54619+Q9UGJ0+Q9Y478+Q13131+Q9UGI9)
# Measurement description: AMP-dependent Kinase enzyme assay. An in vitro enzyme assay that detects ADP turnover that is directly proportional to AMPK activity. This uses naive AMPK that is activated during the assay with MK-8722
# Assay type: functional
# Design: scale not given: direction of the effect not stated beside the values
# Conditions used: 30 µM

{"columns": ["Compound", "Percent Effect (%)"],
 "data": [
  ["CCCc1cc(=O)n(CC(N)=O)c(-n2nc(C)cc2C)n1", 7.17],
  ["c1cncc(C2COC3(CCN(CC4CC4)CC3)C2)c1 (stereo unspecified)", 0.748],
  ["O=C(CCc1ccccc1F)NS(=O)(=O)c1ccc2c(c1)OCCCO2", 2.28],
  ["Cc1ccc(NC2CCN(C(=O)Cc3csc(C)n3)CC2)nn1", -5.18],
  ["CNC(=O)c1ccc(C(=O)N2CCCC2c2cnn(C)c2)cn1 (stereo unspecified)", -6.87],
  ["Cc1csc(N2CCN(Cc3cnc(C)s3)CC2C)n1 (stereo unspecified)", 3.55],
  ["COc1ccc(Br)c(C(=O)NCC2CCN(C(=O)c3ccoc3)CC2)c1", 7.36],
  ["Cn1cc(C(=O)N2CC[C@@H]3[C@@H]2CCN3Cc2cccc(F)c2)cn1", 1.6],
  ["Cn1cc(C2COC3(CCN(C(=O)c4ccc(F)cc4)CC3)C2)cn1 (stereo unspecified)", 6.34],
  ["CC(=O)c1cccc(OCC(=O)NS(=O)(=O)c2ccc(C)s2)c1", -2.86],
  ["CN1CCCC[C@@H]2[C@H]1[C@@H](c1ccccc1)CCN2C(=O)c1cnccn1", 4.14]
]}
